Sourced from ChEMBL document CHEMBL1136869

- MEASUREMENT DESCRIPTION: Clearance in rat at 3 mg/kg, po and 1 mg/kg, iv
- Assay type: ADME, organism-based
- SETUP CONDITIONS: in vivo
PROPERTY LABEL: clearance (mL/min/kg)
Quick reminder: number only, in mL/min/kg, skip the unit.

input: Please supply the value of reported clearance for the item CCN1CCN(c2cc3[nH]c(C(=O)[C@]4(C)CC[C@@](C)(O)CC4)nc3cc2Cl)CC1
output: 77

====

- MEASUREMENT DESCRIPTION: Cmax in dog at 10 mg/kg, iv
- Format: ADME, organism-based, Canis lupus familiaris
- Set-up: dose 10 mg/kg, route intravenous
- SETUP CONDITIONS: in vivo
PROPERTY LABEL: Cmax (µM)
Report the value in µM with no unit label.

input: Give the value of Cmax reported for the following: CCN1CCN(c2cc3[nH]c(C(=O)[C@]4(C)CC[C@@](C)(O)CC4)nc3cc2Cl)CC1
output: 10.7

====

- MEASURED ON: Delta-type opioid receptor (Homo sapiens, UniProt P41143)
- Sequence (P41143 whole entry): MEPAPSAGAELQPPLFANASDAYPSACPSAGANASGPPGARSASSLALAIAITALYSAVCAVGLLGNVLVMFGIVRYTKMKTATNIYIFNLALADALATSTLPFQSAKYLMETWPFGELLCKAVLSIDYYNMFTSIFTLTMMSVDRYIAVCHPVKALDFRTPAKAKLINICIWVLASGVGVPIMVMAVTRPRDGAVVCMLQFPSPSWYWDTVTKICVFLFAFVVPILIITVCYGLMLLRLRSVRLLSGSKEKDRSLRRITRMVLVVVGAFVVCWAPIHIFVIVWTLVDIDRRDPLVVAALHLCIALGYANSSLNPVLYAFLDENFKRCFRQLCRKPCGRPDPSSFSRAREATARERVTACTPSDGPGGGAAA
- MEASUREMENT DESCRIPTION: Displacement of [3H]naltrindole from human delta opioid receptor expressed in CHO cells
PROPERTY LABEL: IC50

input: Consider the compound CCN1CCN(c2cc3[nH]c(C(=O)[C@]4(C)CC[C@@](C)(O)CC4)nc3cc2Cl)CC1 . State its measured IC50.
output: > 10 µM

====

For each record, write down the corresponding pIC50.
The value called pIC50 is obtained by taking minus log10 of the concentration in mol/L.

input: GET pIC50 where system = Voltage-gated inwardly rectifying potassium channel KCNH2 (Homo sapiens, UniProt Q12809) and item = CCN1CCN(c2cc3[nH]c(C(=O)C4(C)CCC(=O)CC4)nc3cc2Cl)CC1
Sequence (Q12809 whole entry): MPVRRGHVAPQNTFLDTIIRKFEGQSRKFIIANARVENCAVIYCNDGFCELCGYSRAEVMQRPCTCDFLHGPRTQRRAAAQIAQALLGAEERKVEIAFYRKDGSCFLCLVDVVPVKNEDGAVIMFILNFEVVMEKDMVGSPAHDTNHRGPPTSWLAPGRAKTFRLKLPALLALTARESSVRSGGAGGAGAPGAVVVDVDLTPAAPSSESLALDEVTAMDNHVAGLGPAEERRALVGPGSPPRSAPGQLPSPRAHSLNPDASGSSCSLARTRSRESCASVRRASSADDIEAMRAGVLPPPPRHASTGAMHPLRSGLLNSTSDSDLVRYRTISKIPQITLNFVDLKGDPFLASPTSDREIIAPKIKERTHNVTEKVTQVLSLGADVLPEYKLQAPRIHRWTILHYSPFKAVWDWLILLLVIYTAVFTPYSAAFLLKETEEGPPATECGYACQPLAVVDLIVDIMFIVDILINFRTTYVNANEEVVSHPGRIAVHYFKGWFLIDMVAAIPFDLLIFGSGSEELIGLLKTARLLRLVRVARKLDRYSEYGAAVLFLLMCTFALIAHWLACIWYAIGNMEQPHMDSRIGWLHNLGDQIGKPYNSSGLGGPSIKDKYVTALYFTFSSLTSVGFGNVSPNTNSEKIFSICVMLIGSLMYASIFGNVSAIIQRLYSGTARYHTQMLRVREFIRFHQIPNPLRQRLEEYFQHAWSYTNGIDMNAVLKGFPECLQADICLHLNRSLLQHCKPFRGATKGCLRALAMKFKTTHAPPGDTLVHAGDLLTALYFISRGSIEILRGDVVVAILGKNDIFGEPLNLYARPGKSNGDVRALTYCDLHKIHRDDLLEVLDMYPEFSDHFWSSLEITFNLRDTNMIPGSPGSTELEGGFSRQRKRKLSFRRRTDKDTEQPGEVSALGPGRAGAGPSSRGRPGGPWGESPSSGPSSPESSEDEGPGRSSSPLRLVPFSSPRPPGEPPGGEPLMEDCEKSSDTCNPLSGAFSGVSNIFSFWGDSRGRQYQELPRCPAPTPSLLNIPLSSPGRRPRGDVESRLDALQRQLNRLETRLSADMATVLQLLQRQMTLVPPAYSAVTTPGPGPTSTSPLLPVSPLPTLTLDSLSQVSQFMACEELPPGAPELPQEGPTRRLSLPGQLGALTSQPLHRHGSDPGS
output: 5.07

input: Specify pIC50 for CCN1CCN(c2cc3[nH]c(C(=O)[C@]4(C)CC[C@](C)(O)CC4)nc3cc2Cl)CC1 , system Voltage-gated inwardly rectifying potassium channel KCNH2 (Homo sapiens, UniProt Q12809).
output: 5.51

input: Retrieve pIC50 on Voltage-gated inwardly rectifying potassium channel KCNH2 (Homo sapiens, UniProt Q12809); query CCN1CCN(c2cc3[nH]c(C(=O)[C@]4(C)CC[C@@H](NC(=O)OC)CC4)nc3cc2Cl)CC1
output: 5.31

input: Identify measured pIC50 obtained with Voltage-gated inwardly rectifying potassium channel KCNH2 (Homo sapiens, UniProt Q12809) for CCN1CCN(c2cc3[nH]c(C(=O)[C@]4(C)CC[C@@](C)(O)CC4)nc3cc2Cl)CC1 .
output: 4.70

input: Look up and report pIC50, with Voltage-gated inwardly rectifying potassium channel KCNH2 (Homo sapiens, UniProt Q12809) as system, for CCN1CCN(c2cc3[nH]c(C(=O)[C@]4(C)CC[C@@H](NC(=O)OC)CC4)nc3cc2C)CC1
output: 5.52

====

- MEASUREMENT DESCRIPTION: Ratio of drug level in brain to plasma of mouse at 3 mg/kg, sc after 30 mins
- Assay type: ADME, organism-based
- Parameters: dose 3 mg/kg, route subcutaneous
PROPERTY LABEL: Kp at 0.5 h
Form: value (number only, do not type unit).

input: Give the value of Kp at 0.5 h reported for the following: CCN1CCN(c2cc3[nH]c(C(=O)[C@]4(C)CC[C@@](C)(O)CC4)nc3cc2Cl)CC1
output: 2.02
